Where do the numbers come from? From patent US20070020327A1.

Measured target: HLA-A*6802 (human)
Test name: competition with 125I-labeled probe peptide for purified HLA, gel filtration
Details: remark: other sources report otherwise
Readout type: IC50 (nM)

Field request: IC50 | item: QLMFLERAFI (modifications not checked) [Peptide 1126.16 … (PSM.667)]
30

A = GTPEGDLVYV (modifications not checked) [Peptide 1418.29 … (PSM.168.T2)]
B = GLPEGDLVYV (modifications not checked) [Peptide 1389.22 … (PSM.168.L2)]
Recorded IC50 values differ for A and B ; which one is higher? Please respond with the label that marks your chosen entry.
B
(B: 964 nM, A: 571 nM)
